Molecular target: L-2-hydroxy-4-methylpentanoic acid-dehydrogenase (Weissella confusa, UniProt P14295)
Construct: the cells harvesting by centrifugation, solubilizing the product in a suspension buffered to pH 7 and obtaining the enzyme from the extract; made in house; host or cells: Lactobacillus confusus DSM 20196 (natural producer, not recombinant)
Sequence (P14295 1-310): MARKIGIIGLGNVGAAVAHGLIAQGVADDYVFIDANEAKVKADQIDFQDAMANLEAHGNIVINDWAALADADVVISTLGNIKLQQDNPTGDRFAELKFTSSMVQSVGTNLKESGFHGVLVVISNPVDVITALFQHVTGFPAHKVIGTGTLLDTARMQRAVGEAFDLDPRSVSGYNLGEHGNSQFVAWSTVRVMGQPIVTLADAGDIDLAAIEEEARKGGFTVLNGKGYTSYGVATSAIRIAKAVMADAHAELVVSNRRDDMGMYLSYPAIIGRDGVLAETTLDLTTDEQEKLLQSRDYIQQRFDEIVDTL
Assay: Reduction of 2-ketocarboxylic acids to L-2-hydroxycarboxylic acids (Example 2), NADH decrease at 340 nm
Type: biochemical, Lactobacillus confusus
Settings: test concentration 0.1 mM substrate, same enzyme solution
Please respond with reported relative activity for every item in the list.
Express it in U/ml; write the number only.

Form: compound = CSCCC(=O)C(=O)O ; relative activity = 33

Form: compound = CC(C)CC(=O)C(=O)O ; relative activity = 133

Form: compound = CCCCC(=O)C(=O)O ; relative activity = 123

Form: compound = CCCC(=O)C(=O)O ; relative activity = 149

Entry source: patent US4530903A
